Quick reference for z-score among some compounds
testDetails: basal HepG2 mitochondrial membrane potential changes, profiling panel, cell-based, JC-1 fluorescence, 24 h, 100 nL compound (AID 1167)
conditionDetails: higher = more signal
Provide a numeric answer; units are not to be included.

Some entries whose results are on file:
• Cc1ccc(C2CC=C(C(=O)O)CN2S(=O)(=O)c2ccc(C)cc2)cc1 (stereo not drawn) = -0.0791
• Cc1cc2c(c(=O)o1)[C@H](O)[C@H]1O[C@H]1C2=O = -1.31

Next:
Prompt: Provide one value: measured z-score of "CO[C@@H]1COC(=O)CC=C[C@@H](C)[C@@H]2C=C[C@H](O)[C@@H](COC(=O)[C@H](C)NC(=O)CC=C[C@H]1C)O2"
Response: -0.086

====

Quick reference for composite z-score among some compounds
System: Lefty1
testDetails: Lefty1 binders on small-molecule microarrays, primary screen, biochemical, small-molecule microarray, 635/667 nm fluorescence (AID 1139)
conditionDetails: small-molecule microarray binding, fluorescence 635/667; higher = more signal

Some entries whose results are on file:
• COC(=O)[C@@H]1CC[C@H](C)[C@@H](c2ccc(C)cc2)N1C(=O)c1ccc(C=NOC[C@@H](O)COCc2ccco2)cc1 = -1.09
• CC(=O)O[C@H]1C2=C(C(=O)[C@@H]3O[C@@H]31)[C@H]1C(C)O[C@@H]2[C@@]23C(=O)[C@@H]4O[C@@H]4[C@@H](O)C2=CO[C@H](C)[C@@H]13 (stereo partly drawn) = 0.0364
• CCCC[C@@H]1C[C@H]1[C@@H](NS(=O)(=O)c1cccc2cccnc12)c1ccc(-c2ccccc2)cc1 = -0.805

Prompt: Provide one value: measured composite z-score of "O=C1[C@H]2[C@H]3[C@H](O)[C@H](O)CC(=NO[C@@H]4O[C@H](CO)[C@@H](O)[C@H](O)[C@H]4O)[C@@H]3CC[C@H]2C(=O)N1Cc1ccc2c(c1)OCO2"
Response: 0.716

Prompt: Provide one value: measured composite z-score of "C#CCCCON=C1C[C@@H](O)[C@@H](O)[C@@H]2[C@@H]3C(=O)N(Cc4ccccc4)C(=O)[C@@H]3CC[C@H]12"
Response: 0.582

Prompt: Provide one value: measured composite z-score of "O=C1c2ccccc2[C@@]2(Cc3ccccc3N(C3CC3)C2=O)[C@H](c2ccc(CO)cc2)N1Cc1ccccc1C(F)(F)F"
Response: -1.32

====

Quick reference for composite z-score among some compounds
System: XIP peptide (Xip251-270) binding
testDetails: small-molecule binders of XIP peptide, primary screen, biochemical, small-molecule microarray, fluorescence 635/667 nm, 0.1 µg/mL protein (AID 1182)
conditionDetails: fluorescent protein binding, 635 nm, higher = more signal, called active from +8 up or from −8 down
Active and inactive are the calls of the source.

Prompt: Provide one value: measured composite z-score of "C[C@@H](c1ccccc1)N1C(=O)[C@H]2[C@H]3[C@H](O)[C@H](O)CC(=NNC(=O)OCc4ccccc4)[C@H]3CC[C@H]2C1=O"
Response: -0.724 (inactive)

Prompt: Provide one value: measured composite z-score of "CC(C)(C)OC(=O)CC[C@]1(C(N)=O)COC(c2ccc(OCCCO)cc2)=N1"
Response: 2.48 (inactive)

Prompt: Provide one value: measured composite z-score of "C=CCOC(=O)[C@H]1[C@@H]2C(=O)O[C@@H](c3ccccc3)[C@@H](c3ccccc3)N2[C@@H](c2ccc(OCCOC(=O)[C@H]3C[C@H]4C(=O)N[C@@H](Cc5ccccc5)C(=O)N4[C@H]3c3ccc(O)cc3)cc2)[C@]12C(=O)Nc1ccccc12"
Response: 2.32 (inactive)
